- Test system: MCF7 breast
- Assay comment: NCI-60 one-dose screen, 48 h (100 = growth as untreated, 0 = no growth, -100 = all killed)
- Conditions used: 10 µM unless noted
The panel holds about 83,000 compounds, 20% with a hit somewhere; the sample as a whole holds those more often.

Compound smiles: O=c1[nH]nc(-c2ccc(Cl)cc2)cc1Cc1cccc([N+](=O)[O-])c1
Assayed system: MCF7 breast
growth / %: 84.8
--
Compound smiles: CC[C@@]12C=CCN3CC[C@]4(c5cc(NC(=O)COc6cc(OCC(=O)Nc7cc8c(cc7OC)N(C)[C@H]7[C@@](O)(C(=O)OC)[C@H](OC(C)=O)[C@]9(CC)C=CCN%10CC[C@]87[C@@H]%109)cc7oc(-c8ccccc8)cc(=O)c67)c(OC)cc5N(C)[C@@H]4[C@](O)(C(=O)OC)[C@H]1OC(C)=O)[C@H]32
Assayed system: MCF7 breast
growth / %: 26.1
--
Compound smiles: CCn1ccnc1C(=O)/C=C/c1ccc(CC(=O)Nc2ccc(F)cc2)cc1
Assayed system: MCF7 breast
growth / %: 25.2
--
Compound smiles: O=S(=O)(c1cccc(NC2=Nc3cccc4cccc2c34)c1)N1CCCC1
Assayed system: MCF7 breast
growth / %: 51.4
--
Compound smiles: COc1ccc(-c2cnnc3c(-c4cccc(C(F)(F)F)c4)cnn23)cc1
Assayed system: MCF7 breast
growth / %: 73.9
--
Compound smiles: COc1ccccc1/C=C1\COc2ccc(-c3ccccc3)cc2C1=O
Assayed system: MCF7 breast
growth / %: -9.07
--
Compound smiles: CCOC(=O)C1=C(C)NC(C)=C(C(=O)OCC)C1c1cc(Br)c(O)c(OC)c1
Assayed system: MCF7 breast
growth / %: 29.3
--
Compound smiles: CCCCCN1C=C/C(=C\C(=O)N(C)c2ccc(Br)cc2)c2ccccc21
Assayed system: MCF7 breast
growth / %: 91

====

- Tested on: MDA-MB-231 breast
- Assay comment: NCI-60 one-dose screen, 48 h
- Conditions used: 10 µM unless noted
Compounds without any hit were thinned out: in the full panel of roughly 83,000, 20% have a hit. Calls of active or inactive are those of the source. The calls were made as follows: active = growth percent below 10; inactive = the rest.
Classes used: YES = active, NO = inactive

Compound smiles: COc1cc(/C=C2\C(=O)N(Cc3ccc(Cl)cc3)c3ccccc32)cc(OC)c1OC
Category: NO

Compound smiles: O=S(=O)(NCCCNc1nccc(-c2c(-c3cccc(O)c3)nc3occn23)n1)c1ccc(F)cc1
Category: NO

Compound smiles: COC(=O)Nc1ccc(NC(=O)OC)cc1
Category: NO

Compound smiles: C=C1C(=O)O[C@H]2[C@H]1CC/C(COC(=O)CCCCCC(=O)OC/C1=C/CC[C@@]3(C)O[C@H]3[C@H]3OC(=O)C(=C)[C@@H]3CC1)=C\CC[C@@]1(C)O[C@@H]21
Category: YES

====

- Test system: LOX IMVI melanoma
- Assay comment: NCI-60 one-dose screen, 48 h (100 = growth as untreated, 0 = no growth, -100 = all killed)
- Conditions used: 10 µM unless noted
About 83,000 compounds went through this panel and 20% of them were active in at least one assay; those are over-represented in the sample as a whole.
Sorting guide: entries reporting growth beneath 30% go in the 1 pile, the rest go in the 0 pile.

Compound: Nc1c(Cl)cc([N+](=O)[O-])cc1Br
Assayed system: LOX IMVI melanoma
Category: 0
//
Compound: COc1ccc(/C=C(/c2ccccc2)[N+](=O)[O-])cc1
Assayed system: LOX IMVI melanoma
Category: 1
//
Compound: COc1cc2nc(-c3ccc(C(F)(F)F)cc3)cc(OCCN3CCCC3)c2cc1OC
Assayed system: LOX IMVI melanoma
Category: 1
//
Compound: CN1CCN(C(=O)OCc2nc3c(N4CCOCC4)nc(-c4ccccc4)nc3n2C)CC1
Assayed system: LOX IMVI melanoma
Category: 1
//
Compound: COc1ccc(C(=O)c2cc(C)c(OC)c(C)c2)c(OC)c1N(C(=O)C(Cl)Cl)C(=O)C(Cl)Cl
Assayed system: LOX IMVI melanoma
Category: 1
//
Compound: COC(=O)CCCCCCCCC1(C)C=CC(C(C)O)=CC1 (stereo unspecified)
Assayed system: LOX IMVI melanoma
Category: 0
//
Compound: O=C(Nc1ccc2cc3ccc(NC(=O)NC4CCCCC4)cc3nc2c1)NC1CCCCC1
Assayed system: LOX IMVI melanoma
Category: 0
//
Compound: c1ccc(-c2nn(-c3ccccc3)[n+](-c3ccccc3-c3ccccc3)n2)cc1
Assayed system: LOX IMVI melanoma
Category: 1
//
Compound: O=C(Nc1ccc2ncnc(Nc3ccc(Oc4cccc(F)c4)c(Cl)c3)c2c1)c1ccc(CN2CCOCC2)cc1
Assayed system: LOX IMVI melanoma
Category: 1
//
Compound: O=C1Nc2c(ccc(Cl)c2Cl)/C1=C/c1ccc(F)cc1
Assayed system: LOX IMVI melanoma
Category: 0
//
Compound: COc1ccc(C(=O)c2cc(C)c(OC)c(C)c2)c(OC)c1O
Assayed system: LOX IMVI melanoma
Category: 1
//
Compound: CN(C)C(=O)c1cc2cnc(Nc3ccc(-c4csc5c(=O)cc(N6CCOCC6)oc45)cc3)nc2n1C1CCCC1
Assayed system: LOX IMVI melanoma
Category: 1
//
Compound: CCCC/C(=N\N=C(N)N)c1ccc(F)cc1
Assayed system: LOX IMVI melanoma
Category: 1
//
Compound: COc1cc2nc(-c3ccc(C(F)(F)F)cc3)cc(OCCCN3CCC(O)CC3)c2cc1OC
Assayed system: LOX IMVI melanoma
Category: 1
//
Compound: O=C(O)CNC(=O)CN1C(=O)c2ccccc2C1=O
Assayed system: LOX IMVI melanoma
Category: 0
//
Compound: CCCC1C(C(=O)OCC)=C(N)Oc2cc(O)ccc21 (stereo unspecified)
Assayed system: LOX IMVI melanoma
Category: 0
//
Compound: Cn1c(COC(=O)N2CCCCC2)nc2c(N3CCOCC3)nc(-c3ccccc3)nc21
Assayed system: LOX IMVI melanoma
Category: 1
//
Compound: C=C1C(=O)O[C@H]2[C@H]1CC/C(COC(=O)CCCc1c[nH]c3ccccc13)=C\CC[C@@]1(C)O[C@@H]21
Assayed system: LOX IMVI melanoma
Category: 1
//
Compound: NC(=O)C1(N2CCCCC2)CCN(CCCC(=O)c2ccc(F)cc2)CC1
Assayed system: LOX IMVI melanoma
Category: 0
//
Compound: COc1ccc2c(c1)OC13Oc4cc(OC)ccc4C=C1CCCC3=C2
Assayed system: LOX IMVI melanoma
Category: 1
//
Compound: C(=C\c1n(Cc2ccc3ccccc3c2)c(-c2ccccc2)c(-c2ccccc2)[n+]1Cc1ccc2ccccc2c1)/c1ccccc1
Assayed system: LOX IMVI melanoma
Category: 1
